biological target: D(3) dopamine receptor (Homo sapiens, UniProt P35462); test: Displacement of [3H]spiperone from human dopamine D3 receptor; conditions: read-out: pKi (converted)
Sequence (P35462 whole entry): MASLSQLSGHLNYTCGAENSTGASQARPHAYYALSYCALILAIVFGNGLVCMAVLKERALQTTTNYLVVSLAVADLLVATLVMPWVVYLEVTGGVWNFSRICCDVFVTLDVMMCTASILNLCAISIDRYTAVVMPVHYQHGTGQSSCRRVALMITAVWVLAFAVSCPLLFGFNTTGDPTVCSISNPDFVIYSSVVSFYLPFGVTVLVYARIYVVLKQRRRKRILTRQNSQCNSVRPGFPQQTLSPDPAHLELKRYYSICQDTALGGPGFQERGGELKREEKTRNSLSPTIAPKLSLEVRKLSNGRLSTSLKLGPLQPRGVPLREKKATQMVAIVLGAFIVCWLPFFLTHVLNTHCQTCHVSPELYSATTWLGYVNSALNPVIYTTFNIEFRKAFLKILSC
Measured attribute: Ki (nM)

Below, 2 compounds whose answers are already recorded.
Mol	Unit name	Ki
O=C1c2ccccc2CCN1CCCN1CCN(c2cccc(Cl)c2Cl)CC1	nM	209
O=C1c2ccccc2CCCN1CCCN1CCN(c2cccc(Cl)c2Cl)CC1	nM	389

I. O=C1c2ccccc2CCN1CCCCN1CCN(c2ccccc2Cl)CC1
II. COc1ccccc1N1CCN(CCCN2CCc3ccccc3C2=O)CC1
III. O=C1c2ccccc2CCCN1CCCCN1CCN(c2ccccn2)CC1
IV. O=C1c2ccccc2CCCN1CCCN1CCN(c2ncccn2)CC1
Ascending by Ki, please. Write the labels in rank order as requested.
I, III, II, IV
(I: 6.76 nM, III: 398 nM, II: 1580 nM, IV: 8320 nM)
